- assay_procedure: yeast display, Sf9 membrane polyspecificity reagent, FACS + sequencing; frameworks hold sequencing errors

| sequence_record | polyreactivity (PSR sort gate) |
| --- | --- |
| QVQLVESGGGLVQAGGSLRLTCAASGSILIYNAMGWYRQAPGKQRELVADITNGGSTNYADSVKGRFTISRDNAKNTVYLQMHSLKPDDTAVYYCAKDAYYWWGPDYDYWGQGTQVTVSS | low polyreactivity |
| QVQLVESGGGLFQAGGSLRLSCAASGITLAYNAMGWYRQAPGKEREFVAAIDVSGGRTYYADSVKVRFTISRDKSKNTVNLQMNSLNPEDTAVYYCAADVAEFSVGYWQDYDYWGQGTQVTVSS | low polyreactivity |
| QDQLVESGGGLVQAGGRLRLSSAASVSTFLPNTLGWYSQAHGKERELVADISWSGGSTYYADSVKGRLTISRDNAKNTVYLQMNRLKPEDTADSYCAADIASGYYWYDYWGQGTQVTVTS | low polyreactivity |

----------
- assay_procedure: yeast display, Sf9 membrane polyspecificity reagent, FACS + sequencing; frameworks hold sequencing errors
readout_kind: polyreactivity (PSR sort gate)

These recorded examples may help you get a feel for the data.
| sequence_record | polyreactivity (PSR sort gate) |
| --- | --- |
| QVQLVESGGGLVQAGGSLRLSCAASRFTFVHYAMGWYRQAPGKERELVAAISRSGGSTYCADSVKGRFTISRDNAKNTVYLQMNSLKPEDTAVYYCAASRGSYEVVYWGQGTQVTVSS | high polyreactivity |
| QVQLVESGGGLVQAGGSLRLSCAASGRIFHYYAMGWYRQAPGKERELVAAISWSGGSTYYADSVKGRFTISRDNAKNTVYLQMNSLKPEETAVYYCAARYVKTKGSFVVGYGYWGQGTQVTLSS | high polyreactivity |
| QVQLVESGGGLVQAVVSLRLSCAASGGTITSYAMVSSRQAPGKERELVAAITRSGGSTYYADSVKGRFTISRDNAKNTVYLQMKSLKPEDTAVYYCAARYWHSYGYWGQGTQVTVSS | high polyreactivity |
| QVQLVESGGWLDQAGGSLRLSCAASGRTLGYYAMGWYRQAPGKERELVASIRYSGGSTYADSVKGRFTISRDNAKNTVYLQMNSLKPEDTAVYYCATGDSFRCYSALSRYDYWGQGTQVTVSS | high polyreactivity |
| QLQLVESGGGLVQAGGSLRLSCAASGSTFSYNAMGWYRQAPWKERELVAAISGSGGTTYYADSVKVRVTISRDNAKNTVYLQMNSLKPEDTAVYYCAARPFRSWRYDYWGQGSQVTVSS | low polyreactivity |

Please report polyreactivity (PSR sort gate) for every entry that follows.
1. QVQLVESGGGLVQAGGSLRLSCAASGFTFSRYAMGWYRQAPGKERELVAVISSSGSRTYYADSVKGRFTISRDNAKNTVYLQMNSLTPEDTAVYYCAAKSYTVTGYEYWGQGTQVTVSS
2. QVQLVESGGGLVQAGGSLRLSCAASGSTFGWYVMGWYRQAPGKERELVAAITTGGSTNYADSVKGRFTISRDHAKNSVYLQMNSLKPEDTAVYYCGKAVTEVIYRGVTEGAVDYWGQGTQVTVSS
3. QVQLVESGGGLVQAGGSLRLSCASSGFTFWTYDMGWYRQAPGKERELVAAIDSGGSTYYADSVKGRFTISRDNAKNTVYLQMNSLKPEDTAVYYCNAGPSVTSGYDYDYWGQGTQVTVSS

1. high polyreactivity
2. low polyreactivity
3. low polyreactivity

Please report polyreactivity (PSR sort gate) for every entry that follows.
1. QVQLVESGGGLVQAGGSLRLSCAASGRIFRYNVMGWYRQPPGKERELVAAIRWSGGSTYYADSVKGRFTISRDNAKNTVYLQMNSLKPEDTAVYYCNTVGRWRGYDYWGQGTQVTVSS
2. QVQLVESGLGLVQAGGSLSLSCAASGIIFSWNSMGWYIEAPGKERELVAAITRGGGGTTYYADYVKGRFTISRDKAKNTVYLQMNSLKPEDTAVYYCAKAYEVRFEVDYCGQGTQVTVSS
3. QVQLVESGGGLVQAGGSLRLSCAASGRIFRRYAMGWYRQAPGKEREFVAAITDGSTYYADSVKGRFTISRDNAKNTVYLQMNSLKPEDTAVYYCATQYGWSYSRRFYYWGQGTQVTVSS
4. QVQLVESGGGLVQAGGSLRLSCAASGFIFPTNVMGWYRQAPGKEREFVASITWRGGGTYYADSVKGRFTISRDNAKNTVYVQMNSLKPEDTAVYYCAAGRSWSSYWKYDYWGQGTQVTVSS
5. QVQLVESGGGLVQAGDSLRLSCAASGLTFTYYAMGWYRQAPGKERELVAAITGSGDRTYYADSVKGRFTISRDNAKNTVYLQMNSLKPEDTAVYYCARDRPGRATGFDYWGPGTQVTVSS
6. QFQLVESGGGLVQAGGSLRLSCAASGSIFDRNAMGWYRQAPGKERELVAAITSGGSTYYADSVKGRFTISRDNAKNTVYLQMNSLKPEDNAVYYCNADTDPPVPLYYWGQGTQVTVSS
7. QVQLVESGGGLVQAGGSLRLSCAASGFIFSYYAMGWYRQEPGKERELVAAITSNGGITYYADSVKGRFTISRDNAKNTVYLQMNSLKPEDTAVYYCNAYYTSTSYDYWGQGTQVTVSS

["high polyreactivity", "low polyreactivity", "high polyreactivity", "low polyreactivity", "high polyreactivity", "low polyreactivity", "high polyreactivity"]

----------
- assay_procedure: yeast display, Sf9 membrane polyspecificity reagent, FACS + sequencing; frameworks hold sequencing errors
readout_kind: polyreactivity (PSR sort gate)

These recorded examples may help you get a feel for the data.
| sequence_record | reading |
| --- | --- |
| QVQLVESGGGLVQAGGSLRLSCAASGRTFRSDNALGWYRQPPGKERELVAAISQGGGTYYADSVKGRFTISRDNAKKTVYLQMNSLKPEDTAVYYCARDAYYADPSLWYYTYDYWGQGTQVTVSS | low polyreactivity |
| QVQLVESGGGLVQAGGSLRLSCAASGSTLYVYTMGWYRQAPGKERELVATINTSGSRTYYADSVKGRFTISRDNAKNTVYLQMNSLKPEDTAVYYCAAEYVGKGTPDDYDYWGQGTQVTVSS | high polyreactivity |
| QVQLVESGGGLVQAGGSLRLSCAASGNTLQYYAMGWYRQAPGKERELVAAITTGGSTNYADSVKARFTISRDNAKNTGYLQMNSLKPEDTAVYYCAARGGVSKRISDYWGQGTQVTVSS | low polyreactivity |
| QVQLVESAAGLFQAGGRLRLSCAASGRICGFYAKGWYTQAPGKQRDLVAAITVSGSSTRYADSVKGRFTISRDNAKNTVYLQMNSLKPEDTAVYYCAARIRAKYSYGYWGQVTQVTVSS | high polyreactivity |

Sure, the documented polyreactivity (PSR sort gate) for `QVQLVESGGGLVQAGGILRLSCAASGSTLRTNAMGWYRQEPGKDRELVAAISTRGSSTYYADSVKGRFTISRDNAKNTVYLQMNSLQPEDTAVYYCNTAWGPRRGVNVAFDYWGQGTHVTVSS` is low polyreactivity

----------
- assay_procedure: yeast display, Sf9 membrane polyspecificity reagent, FACS + sequencing; frameworks hold sequencing errors
readout_kind: polyreactivity (PSR sort gate)

These recorded examples may help you get a feel for the data.
| sequence_record | readout_kind | reading |
| --- | --- | --- |
| QVQLVESGGGLVQAGGSLRLSCAASGSIFTQNAMGWYRQAPGKERELVAAITSTGGSTYYADSVKGRFTISRDNAKNTVYLQMNSLKPEDTAVYYCNADGFRRAALHDYWGQGTQVTVSS | polyreactivity (PSR sort gate) | high polyreactivity |
| QVQHAESGGGLDQAGGSLRLSCAASGGNFQANAMGWSRQATGKEREFVATITRGGGSTYYADSVKGRFTISRDNAKNTVYLQMNSLKPEDTAVYYCNSKPSYYQRYNYWGQGTQVTVSS | polyreactivity (PSR sort gate) | high polyreactivity |
| QVQHVESGVGLVQAGGSLRLSCAASGFIFTINAMGWYRQAPGKERELVAAISWSGGRTYYADSVKGRFTISRDNAKNTVYLQMNSLNPEDTAVYYCNAYPATQYDYESWGQGTQGTVSS | polyreactivity (PSR sort gate) | high polyreactivity |
| QVQLVESGGGLVQAGGSLRLTCAASGSTFAGNAMGWYRQATGKERELVAAIDSSTGSTYYADSVKGRFTISRDNAKNTVYLQMNSLKPEDSAVYYCNKTSFLVKLDYWGQGTQVTVSS | polyreactivity (PSR sort gate) | low polyreactivity |
| QVQLVESRGGLVQAGCSLRLRCAASGFIFSWYAMGWYRHAPGKERELDAAISASGTSTYYADSVKGRFTISRDNAKNTVYLQMNSLKPEDTAVYYCAAEFVTEYLYGFVYEYDSWGQGTQVTVSS | polyreactivity (PSR sort gate) | low polyreactivity |
| QVQLVESGGGLVQAGGSLRLSCADSGRILPFYAMGWYRQAPGKERELVADISLSGGDTYYADSVKGRFTISRDNAKNTVYLQMNSLKPEDTAVYYCAKDRYQWLWSPEYDYWGQGTQVTVSS | polyreactivity (PSR sort gate) | low polyreactivity |
| QVQLVESGGGLVQAGGSLRLSCAASGITFGVNTMGWYRQAPGKERELVAAITWRGGSTYYADSVKGRFTISRDNAKNTVYLQMNSLKPEDTAVYYCAAVDFTREISGVTYGFDYCGQGTQVTVSS | polyreactivity (PSR sort gate) | low polyreactivity |
| QVQLVESGGGLVQAGGSLRLTCAASGRILSHYAMVWYIQAPGKERELVATINSGGATYYADSVKGRFTISRDNAKYTVYFQMNSLKPEDTAVYYCAVDYAVSYAGWVLRYDYWGQGTQVTVSS | polyreactivity (PSR sort gate) | low polyreactivity |
| QDQHVESGGGLVQAGGSLRLSCAASGTTFSLYMGWNRQSPGKERKLVAAITYSGGRTYYADSVKGRFTISRDNAKNTVYLQMNSLKPEDTAVYYCGTVFNDLTVYEYWSRFDYWGQGTQVTVSS | polyreactivity (PSR sort gate) | low polyreactivity |
| QVQLVESGGGLVQAGGSLRLSCAASGFTFYVNAMGWYRQAPGKERELVAAISSRGGSTYYADSVKGRFTISRDNAKNTVYLQMNSLKPEDTAVYYCATAKSYGEDSWGQGTQVTVSS | polyreactivity (PSR sort gate) | high polyreactivity |

Sure, the documented polyreactivity (PSR sort gate) for `QVQLVESGGGLVQAGGSLRLSCAASGRIFSNYAMGWYRQAPGKERELVAAISSSGGRTYYADSVKGRFTISRDNAKNTVYLQMNSLKPEDTAVYYCARRHTGTKFAFYYWGQGTQVTVSS` is high polyreactivity
